Test: Photodecomposition of phthalocyanines in toluene under white light, no added radical source
Settings: time 2 h, radiation 86 kJ/mol × 10^−6; toluene ~9 μM, no added alkene, white light 1.2 kJ/s/m^2
Experimental Readout: decomp (%)

>  <Molecule>
CCCCC/C=C\C/C=C\CCCCCCCC(=O)O.CCCCC/C=C\C/C=C\CCCCCCCC(=O)O.CN(C)CCC[Si](C)(C)O[Si]1(O[Si](C)(C)CCCN(C)C)n2c3c4ccccc4c2N=C2N=C(N=c4c5ccccc5c(n41)=NC1=NC(=N3)c3ccccc31)c1ccccc12 [Pc 289]

>  <Recorded Measurement>
18

$$$$
>  <Molecule>
CC1=C(/C=C/C(C)=C/C=C/C(C)=C/C(=O)O[Si]2(OC(=O)/C=C(C)/C=C/C=C(C)/C=C/C3=C(C)CCCC3(C)C)n3c4c5ccccc5c3N=C3N=C(N=c5c6ccccc6c(n52)=NC2=NC(=N4)c4ccccc42)c2ccccc23)C(C)(C)CCC1 (stereo not shown) [Pc 301, SiPc[OC(O)(CH═C(CH3)CH═CH)2C6H6(CH3)3]2]

>  <Recorded Measurement>
19

$$$$
>  <Molecule>
C=C[Si](C=C)(C=C)O[Si]1(O[Si](C=C)(C=C)C=C)n2c3c4ccccc4c2N=C2N=C(N=c4c5ccccc5c(n41)=NC1=NC(=N3)c3ccccc31)c1ccccc12 [Pc 279, SiPc[OSi(CH═CH2)3]2]

>  <Recorded Measurement>
0

$$$$
>  <Molecule>
CCCCC/C=C\C/C=C\C/C=C\C/C=C\CCCC(=O)O.CCCCC/C=C\C/C=C\C/C=C\C/C=C\CCCC(=O)O.CN(C)CCC[Si](C)(C)O[Si]1(O[Si](C)(C)CCCN(C)C)n2c3c4ccccc4c2N=C2N=C(N=c4c5ccccc5c(n41)=NC1=NC(=N3)c3ccccc31)c1ccccc12 [Pc 291]

>  <Recorded Measurement>
18

$$$$

* * *

Experiment: Photodecomposition of Al and Si phthalocyanines in toluene in the presence of squalene under white light
Format: physicochemical
Conditions: time 2 h, radiation 86 kJ/mol × 10^−6; toluene ~9 μM, squalene 1:1000 mole ratio, white light 1.2 kJ/s/m^2, air

>  <Compound>
CCC[Si](CCC)(CCC)[O][Al]1[n]2c3c4ccccc4c2N=C2N=C(N=c4c5ccccc5c([n]41)=NC1=NC(=N3)c3ccccc31)c1ccccc12

>  <decomp (%)>
8

$$$$
>  <Compound>
C[SiH2]O[Si]1(O[SiH2]C)n2c3c4ccccc4c2N=C2N=C(N=c4c5ccccc5c(n41)=NC1=NC(=N3)c3ccccc31)c1ccccc12 (centres unmarked)

>  <decomp (%)>
24

$$$$
>  <Compound>
C[Si](C)(C)O[Si]1(O[Si](C)(C)C)n2c3c4ccccc4c2N=C2N=C(N=c4c5ccccc5c(n41)=NC1=NC(=N3)c3ccccc31)c1ccccc12

>  <decomp (%)>
11

$$$$
>  <Compound>
CCCCCC[Si](CCCCCC)(CCCCCC)O[Si]1(O[Si](CCCCCC)(CCCCCC)CCCCCC)n2c3c4ccccc4c2N=C2N=C(N=c4c5ccccc5c(n41)=NC1=NC(=N3)c3ccccc31)c1ccccc12

>  <decomp (%)>
9

$$$$
>  <Compound>
C[Si](C)(CCCI)O[Si]1(O)n2c3c4ccccc4c2N=C2N=C(N=c4c5ccccc5c(n41)=NC1=NC(=N3)c3ccccc31)c1ccccc12 (centres unmarked) [Pc 58, SiPc[OSiMe2(CH2)3I](OH)]

>  <decomp (%)>
12

$$$$
>  <Compound>
CC[Si](CC)(CC)O[Si]1(O[Si](CC)(CC)CC)n2c3c4ccccc4c2N=C2N=C(N=c4c5ccccc5c(n41)=NC1=NC(=N3)c3ccccc31)c1ccccc12

>  <decomp (%)>
5

$$$$
>  <Compound>
CCCCCCCC[Si](CCCCCCCC)(CCCCCCCC)O[Si]1(O[Si](CCCCCCCC)(CCCCCCCC)CCCCCCCC)n2c3c4ccccc4c2N=C2N=C(N=c4c5ccccc5c(n41)=NC1=NC(=N3)c3ccccc31)c1ccccc12

>  <decomp (%)>
10

$$$$
>  <Compound>
CCCCCC[Si](CCCCCC)(CCCCCC)[O][Al]1[n]2c3c4ccccc4c2N=c2c4ccccc4c([n]21)=NC1=NC(=NC2=NC(=N3)c3ccccc32)c2ccccc21

>  <decomp (%)>
10

$$$$
